# assayTarget: probe peptide
# testMethodNotes: Fluorescence titration of probe peptide with tag peptide (HEPES buffer), incl. Job's plot
# Format: binding
# conditionParameters: tag peptide to probe peptide, theoretical formula assuming 1 to 1 interaction, fluorescence at 505 nm; read-out: dissociation constant Kd
# maps each entry to its Kd
endpointName: Kd (nM)

INSERT INTO measurements (constructsequence, unitstring, quantitativereadout) VALUES
  ('ALKKELEAGKKELEALKKELAGGCGGALEKELEALEKEGEALEKELA [Example 3]', 'nM', 755),
  ('ALKKELEAAKKELEALKKELAGGCGGALEKELEALEKEAEALEKELA [Example 1]', 'nM', 17.5),
  ('ALKKELEALKKELEALKKELAGGCGGALEKELEALEKELEALEKELA [Example 2]', 'nM', 24.3);

Hello, the source for this data is patent US8445291B2, in case you need it.
